# Test system: U2OS
# assay.info: Multiplex assay against U2OS
# Type: toxicity, cell-based
# measurement.conditions: human, 12 h, 10 µM, compound concentration 10 uM, replicate 2
Attribute: Population Membrane Permeable-Phenotype (%)
Please don't drop the unit; write it after the number.

Please review the entries below; each comes with its answer.
CCn1cc(-c2ccnc3[nH]c(-c4cccc(CN(C)C)c4)cc23)c(-c2ccc(NC(=O)N(C)C)cc2)n1 [GSK-1070916] = 37%
O=C(Nc1ccc(Cl)cc1)Nc1cccc(-c2cccc(N3CCCC3)n2)c1 = 69%
COc1cc2ncnc(Nc3ccc(F)c(Cl)c3)c2cc1NC(=O)/C=C/CN1CCCCC1 [DACOMITINIB ANHYDROUS] = 10%
Cl.O=c1c2cccn2c2ccccc2n1CCCN1CCC(c2ccc(Cl)cc2)CC1 = 74%
CCCS(=O)(=O)Nc1ccc(F)c(C(=O)c2c[nH]c3ncc(Cl)cc23)c1F [PLX-4720] = 11%

What does the record list as Population Membrane Permeable-Phenotype (%) for Cc1ccc2nc(NCCN)c3ncc(C)n3c2c1.O=C(O)C(F)(F)F.O=C(O)C(F)(F)F ?
15%

What does the record list as Population Membrane Permeable-Phenotype (%) for S=C(NCCCc1c[nH]cn1)NCCCN(Cc1ccc(Cl)c(Cl)c1)c1ccc(Br)cn1 ?
100%

What does the record list as Population Membrane Permeable-Phenotype (%) for CCn1c(=O)c(-c2ccc(-c3cncs3)cc2Cl)cc2cnc(Nc3ccc(N4CCN(C)CC4)cc3)nc21 ?
5%

What does the record list as Population Membrane Permeable-Phenotype (%) for O=C(Nc1ccc(-n2nc(-c3cccnc3)cc2C(F)(F)F)cn1)c1ccc(-c2ccccc2)c(F)c1 [BI 2049] ?
4%

What does the record list as Population Membrane Permeable-Phenotype (%) for CCc1cccc(CC)c1NC(=O)c1nn(C)c2c1CCc1cnc(Nc3ccc(N4CCN(C)CC4)cc3OC)nc1-2 ?
22%

What does the record list as Population Membrane Permeable-Phenotype (%) for CNC(=O)c1ccc(Nc2nc(OC3CCCC3)c3c(-c4ccc5nc(C)oc5c4)c[nH]c3n2)c(OC)c1 ?
54%

What does the record list as Population Membrane Permeable-Phenotype (%) for NC(=O)c1cccc(-c2cc(Nc3ccc(OC(F)(F)F)cc3)ncn2)c1 ?
12%

What does the record list as Population Membrane Permeable-Phenotype (%) for CCOc1cc(C(=O)N2CCC(N3CCN(C)CC3)CC2)ccc1Nc1ncc2c(n1)N(C1CCCC1)c1ccccc1C(=O)N2C ?
93%

What does the record list as Population Membrane Permeable-Phenotype (%) for O=C1N/C(=N/c2ccccc2F)S/C1=C\c1ccc(C(=O)O)cc1 ?
1%

What does the record list as Population Membrane Permeable-Phenotype (%) for Cc1cn(-c2cc(NC(=O)c3ccc(C)c(Nc4nccc(-c5cccnc5)n4)c3)cc(C(F)(F)F)c2)cn1 [NILOTINIB] ?
4%

What does the record list as Population Membrane Permeable-Phenotype (%) for COC(=N)c1nc2ccc3ncnc(Nc4ccc(OC)cc4F)c3c2s1 ?
8%

What does the record list as Population Membrane Permeable-Phenotype (%) for Cl.Oc1ccc2c3c1O[C@H]1c4[nH]c5c(c4C[C@@]4(O)[C@@H](C2)N(CC2CC2)CC[C@]314)C[C@@]1(O)[C@H]2Cc3ccc(O)c4c3[C@@]1(CCN2CC1CC1)[C@H]5O4 ?
52%

====

# System: Fibroblast
# assay.info: Multiplex assay against human fibroblast
# Format: toxicity, cell-based
# measurement.conditions: 24 h, 1 µM, compound concentration 1 uM, replicate 2
Attribute: Population Mitochondria Different-Phenotype (%)

Please review the entries below; each comes with its answer.
O=C1N/C(=N/c2ccccc2F)S/C1=C\c1ccc(C(=O)O)cc1 = 10%
COc1cccc2cc(-c3nc([C@H]4CC[C@H](C(=O)O)CC4)n4ncnc(N)c34)[nH]c12 [OSI-027] = 13%
COc1ccc(S(=O)(=O)N(CCO)c2ccccc2CN(C)C/C=C/c2ccc(Cl)cc2)cc1.O=P(O)(O)O = 100%
Cc1ccc(C(=O)Nc2cccc(C(F)(F)F)c2)cc1Nc1nc(-c2cccnc2)nc2c1cnn2C = 29%
NC(=O)c1cccc(-c2cc(Nc3ccc(OC(F)(F)F)cc3)ncn2)c1 = 16%

What does the record list as Population Mitochondria Different-Phenotype (%) for Cl.O=C(c1ccc(Nc2nccc(-c3cc4ccccc4s3)n2)cc1)N1CCC(N2CCCC2)CC1 ?
20%

What does the record list as Population Mitochondria Different-Phenotype (%) for CN1CCC(=C2c3ccccc3CC(=O)c3sccc32)CC1.O=C(O)/C=C/C(=O)O [KETOTIFEN FUMARATE] ?
10%

What does the record list as Population Mitochondria Different-Phenotype (%) for CCOc1cc2ncc(C#N)c(Nc3ccc(OCc4ccccn4)c(Cl)c3)c2cc1NC(=O)/C=C/CN(C)C [NERATINIB] ?
6%

====

# System: HEK-293T
# assay.info: Incucyte cell viability with HEK293T; note: filed as whole numbers so only -1 and 0 and 1 occur
# Type: toxicity, cell-based
# measurement.conditions: human, 0 h, 10 µM, compound concentration 10 uM, replicate number 1, timepoint 0 hours
Attribute: Growth Rate
No unit in the answer, only the number.

Please review the entries below; each comes with its answer.
CC(C)C[C@H](CO)Nc1nc(S[C@@H](C)c2ccccc2)nc2nc(N)sc12 = 1
CCCS(=O)(=O)Nc1ccc(F)c(C(=O)c2c[nH]c3ncc(Cl)cc23)c1F = 0
Cn1cc(CCn2cnc(-c3cnn(C)c3)c2-c2ccc(C#N)cc2)cn1 = 1
CC(=O)N1CCC(c2ccc(C(=O)NC(=N)N)cc2C(F)(F)F)CC1 = 0
CC(C)(Sc1ccc(CCN(CCCCC2CCCCC2)C(=O)NC2CCCCC2)cc1)C(=O)O = 1
C#C[C@]1(O)CC[C@H]2[C@@H]3CCc4cc(O)ccc4[C@H]3CC[C@@]21C = -1

What does the record list as Growth Rate for C=C1/C(=C\C=C2/CCC[C@]3(C)[C@@H]([C@H](C)/C=C/[C@H](C)C(C)C)CC[C@@H]23)C[C@@H](O)C[C@@H]1O ?
0

What does the record list as Growth Rate for COC(=N)c1nc2ccc3ncnc(Nc4ccc(OC)cc4F)c3c2s1 ?
0

====

Attribute: Population Pyknosed Nuclei (%)
# System: U2OS
# assay.info: Multiplex assay against U2OS
# Format: toxicity, cell-based
# measurement.conditions: human, 24 h, 10 µM, compound concentration 10 uM, replicate 1
Your answer is read as %, so omit the unit and give the number.

CN1CCN(C(=O)C(C)(C)c2ccc(C(=O)Nc3cn4cc(-c5cc(C(C)(C)C)cc(C(C)(C)C)c5)ccc4n3)cc2)CC1 [T3-CLK-N] = 6
CNC(=O)c1ccc(Nc2nc(OC3CCCC3)c3c(-c4ccc5nc(C)oc5c4)c[nH]c3n2)c(OC)c1 = 20
CCN1CCN(Cc2ccc(Nc3ncc(F)c(-c4cc(F)c5nc(C)n(C(C)C)c5c4)n3)nc2)CC1.CS(=O)(=O)O = 49
O=C1N/C(=N/c2ccccc2F)S/C1=C\c1ccc(C(=O)O)cc1 = 8
Cl.O=c1c2cccn2c2ccccc2n1CCCN1CCC(c2ccc(Cl)cc2)CC1 = 33

What does the record list as Population Pyknosed Nuclei (%) for CNc1cc(Oc2cc(C(=O)Nc3cc(N4CCN(C)CC4)cc(C(F)(F)F)c3)ccc2C)ncn1 ?
48

What does the record list as Population Pyknosed Nuclei (%) for Cc1cc(C)c(S(=O)(=O)N(Cc2ccc(-c3cccc(S(C)(=O)=O)c3)cc2)Cc2ccc(C(F)(F)F)o2)c(C)c1 ?
17

What does the record list as Population Pyknosed Nuclei (%) for Cc1ccc(C(=O)Nc2cccc(C(F)(F)F)c2)cc1Nc1nc(-c2cccnc2)nc2c1cnn2C ?
57

====

# Test system: U2OS
# assay.info: Incucyte cell viability with U2OS; note: filed as whole numbers so only -1 and 0 and 1 occur
# Assay type: toxicity, cell-based
# measurement.conditions: human, 12 h, 10 µM, compound concentration 10 uM, replicate number 1, timepoint 12 hours
reported.property: Growth Rate
No unit in the answer, only the number.

Please review the entries below; each comes with its answer.
CN(C)C(=O)c1cc2cnc(Nc3ccc(N4CCNCC4)cn3)nc2n1C1CCCC1 = 0
COC1CCN(c2cccc(-c3cc(NC(C)=O)nc(-n4nc(C)cc4C)n3)n2)CC1 = 0
O=S(=O)(NC1CCC(c2cc(F)ccc2F)(S(=O)(=O)c2ccc(Cl)cc2)CC1)C(F)(F)F (stereo not drawn) = 1
CCc1cccc(CC)c1NC(=O)c1nn(C)c2c1CCc1cnc(Nc3ccc(N4CCN(C)CC4)cc3OC)nc1-2 = 0
C=C(c1ccc(C(=O)O)cc1)c1cc2c(cc1C)C(C)(C)CCC2(C)C = 1

What does the record list as Growth Rate for c1ccc(Nc2nc3c(s2)CCCc2[nH]ncc2-3)nc1 ?
1

What does the record list as Growth Rate for Cc1nc(-c2ccc(C(F)(F)F)cc2)sc1COc1ccc([C@H](CC(=O)O)c2ccon2)cc1 ?
0

What does the record list as Growth Rate for CC(C)(C(=O)O)c1ccc(C(O)CCCN2CCC(C(O)(c3ccccc3)c3ccccc3)CC2)cc1.Cl (stereo not drawn) [FEXOFENADINE HYDROCHLORIDE] ?
1

Source: ChEMBL document CHEMBL4689842
